Parameter: GI50. Scope: all listed entries.
Test system: K562
Assay: NCI tumour cell line growth inhibition, 48 h
Activity calls are given as the source filed them. Rule as the data show it: active = GI50 up to about 1.1 µM and inactive = higher.

A selection of reference data follows.
- COMPOUND: "CSCCC(NC(=O)OC(C)(C)C)C(=O)NCCNc1ccc(NCCNC(=O)C(CCSC)NC(=O)OC(C)(C)C)c2c1C(=O)c1ccccc1C2=O (centres undefined)"
  TARGET DESC: "K562"
  EXPERIMENTAL ENDPOINT: "GI50"
  RESULT VALUE: "2.75 µM (inactive)"
- COMPOUND: "C[S+](C)CC1OC(n2cnc3c(N)ncnc32)C(O)C1O (centres undefined)"
  TARGET DESC: "K562"
  EXPERIMENTAL ENDPOINT: "GI50"
  RESULT VALUE: "> 225 µM (inactive)"
- COMPOUND: "CCOc1ncnc2ccc(Cl)c(I)c12"
  TARGET DESC: "K562"
  EXPERIMENTAL ENDPOINT: "GI50"
  RESULT VALUE: "88.7 µM (inactive)"
- COMPOUND: "O=C1CC2(c3ccccc3)ON=C(c3ccccc3)N2c2ccccc2N1 (centres undefined)"
  TARGET DESC: "K562"
  EXPERIMENTAL ENDPOINT: "GI50"
  RESULT VALUE: "38.8 µM (inactive)"
- COMPOUND: "COc1cc(C(N)=O)cc(NC(=O)/C=C/c2ccccc2)c1OC"
  TARGET DESC: "K562"
  EXPERIMENTAL ENDPOINT: "GI50"
  RESULT VALUE: "> 100 µM (inactive)"

Look at this compound and give its reported GI50. C=C(COC(C)=O)CC(/C=C(\C)CCC=C(C)C)OC(C)=O (centres undefined) > 100 µM (inactive)

Look at this compound and give its reported GI50. CN(CCn1cnc2c1c(=O)n(C)c(=O)n2C)C1CCCCC1 > 100 µM (inactive)

Look at this compound and give its reported GI50. OCCCOC(c1ccccc1)(c1ccccc1)c1ccccc1 > 100 µM (inactive)

Look at this compound and give its reported GI50. COC12OCCN(CCO)C1=CC(=O)C1(C)N=NC(C)C12 (centres undefined) > 100 µM (inactive)

###

Tested on: MCF7
Assay: NCI tumour cell line growth inhibition, 48 h
Active and inactive are the calls of the source. Rule as the data show it: active = GI50 up to about 1.1 µM and inactive = higher.
Parameter: GI50. Scope: all listed entries.

A selection of reference data follows.
- MOLECULE: "CC(C)(C)[C@@H]1NC(=O)CN1C(=O)OCc1ccccc1"
  TARGET DESC: "MCF7"
  GI50: "> 100 µM (inactive)"
- MOLECULE: "O=C1C(Cl)C(c2cc3cc(Br)ccc3nc2Cl)N1c1ccc(F)c(Cl)c1 (stereo unspecified)"
  TARGET DESC: "MCF7"
  GI50: "5.96 µM (inactive)"

Look at this molecule and give its reported GI50. COC(=O)/C=C1\C(=O)N(C(C)=O)c2ccccc21 3.64 µM (inactive)

Look at this molecule and give its reported GI50. CC(C)=C[C@@H]1C[C@H](n2cc(C)c(=O)[nH]c2=O)ON1CCO > 100 µM (inactive)

Look at this molecule and give its reported GI50. CC(C)=CCOc1cc(NC(=S)c2ccoc2C)ccc1Cl > 100 µM (inactive)

Look at this molecule and give its reported GI50. CC(=O)Oc1cccc2c1C(=O)C(Br)(Br)CCC2 2.29 µM (inactive)

###

Parameter: GI50. Scope: all listed entries.
Tested on: MOLT-4
Experiment: NCI tumour cell line growth inhibition, 48 h
Activity calls are given as the source filed them. Rule as the data show it: active = GI50 up to about 1.1 µM and inactive = higher.

- COMPOUND: "O=[N+]([O-])c1cccc2nc3ccccc3c(NCCCCNc3c4ccccc4nc4cccc([N+](=O)[O-])c34)c12"
  RESULT VALUE: "< 0.0104 µM (active)"
- COMPOUND: "NC(=O)c1nnn(-c2ccccc2)c1O"
  RESULT VALUE: "> 100 µM (inactive)"
- COMPOUND: "COc1cc(OC)c(-c2ccc(OCc3ccccc3)c3c(OC)cc(C)cc23)c2c1C(C)=N[C@H](C)C2"
  RESULT VALUE: "2.29 µM (inactive)"
- COMPOUND: "COC(=O)/C=C1\\C(=O)N(C(C)=O)c2ccccc21"
  RESULT VALUE: "5.78 µM (inactive)"

Pending compound:
Look at this compound and give its reported GI50. N=C1OC(CN2CCN(c3ccccc3)CC2)CN1C(=O)Nc1ccccc1 (stereo not given) > 100 µM (inactive)

###

Parameter: GI50. Scope: all listed entries.
System: SK-MEL-5
Assay: NCI tumour cell line growth inhibition, 48 h
Active and inactive are the calls of the source. No stated cut-off is given here; in the data, active = GI50 up to about 1.1 µM and inactive = higher.

A selection of reference data follows.
- MOLECULE: "Cc1nc2ccccc2c(=O)n1NC(=O)c1ccc(CS)cc1"
  GI50: "3.92 µM (inactive)"
- MOLECULE: "COc1ccc(-n2cnc3c(NCC(=O)O)ncnc32)cc1"
  GI50: "> 100 µM (inactive)"
- MOLECULE: "COc1cccc(SSc2cccc(OC)c2C(=O)O)c1C(=O)O"
  GI50: "> 100 µM (inactive)"
- MOLECULE: "O=C1COC(c2ccccc2O)=NN1CCCN1CCCC1"
  GI50: "> 100 µM (inactive)"
- MOLECULE: "COc1cc2oc(-c3ccc(O)cc3)c(OC3OC(C)C(O)C(O)C3O)c(=O)c2c(O)c1OC (stereo not given)"
  GI50: "45.1 µM (inactive)"

Pending molecule:
Look at this molecule and give its reported GI50. O=C1C=C/C(=C/[C@H]2SSC=C[C@]23C=CC(=O)C3)C1 16.9 µM (inactive)

###

Test system: KM12
Assay: NCI tumour cell line growth inhibition, 48 h
The source made the active and inactive calls. No stated cut-off is given here; in the data, active = GI50 up to about 1.1 µM and inactive = higher.
The reply should be one of these categories: active, inactive

- COMPOUND: "CCC(C)C(=O)O[C@H]1C(=O)O[C@@H]2C[C@H]3C(C)=CC(=O)[C@@H](O)[C@]3(C)[C@H]3[C@@H](O)[C@H](O)[C@@]4(C)OC[C@]32[C@@H]14 (some centres undefined)"
  ANSWER LABEL: "active"
- COMPOUND: "CC(C)(C)OC(=O)NCCCCC1NC(=O)[C@@H]2Cc3c([nH]c4ccccc34)C(C3CCCCC3)N2C1=O (some centres undefined)"
  ANSWER LABEL: "inactive"
- COMPOUND: "CC1=NN(c2nc(N)nc(/C(C#N)=C/c3ccccc3O)n2)C(C)(C)C1"
  ANSWER LABEL: "inactive"
- COMPOUND: "N=C1/C(=C/c2ccccc2)C(=O)N=C2SC=NN12"
  ANSWER LABEL: "inactive"

Which outcome was entered for the compound C=C1C[C@@H](O)C[C@@]2(C)C[C@@H]3OC(=O)C(=C)[C@@H]3C[C@H]12 in this test? inactive

Which outcome was entered for the compound CC(=O)/C(=C/NC(=S)c1ccncc1)C(=O)Nc1ccccc1C in this test? inactive

Which outcome was entered for the compound Cc1ccc(O)c(C2=NNC(c3cccc(Br)c3)C2)c1 (centres undefined) in this test? inactive

###

Tested on: SK-MEL-28
Assay: NCI tumour cell line growth inhibition, 48 h
The source made the active and inactive calls. Rule as the data show it: active = GI50 up to about 1.1 µM and inactive = higher.
The reply should be one of these categories: active, inactive

Illustrative cases are given below, each with its answer.
- COMPOUND: "Cc1cc2c(c(C(N)=O)c1C)-c1ccccc1C2=O"
  ANSWER LABEL: "inactive"
- COMPOUND: "COC(=O)n1c(CBr)c(Br)c2ccccc21"
  ANSWER LABEL: "inactive"

Which outcome was entered for the compound Cc1ccc(S(=O)(=O)N(CCN2C(=O)c3ccccc3C2=O)c2cc3c4c(c2)Oc2cc(N(CCN5C(=O)c6ccccc6C5=O)S(=O)(=O)c5ccc(C)cc5)cc5c2C4(C)c2c(cc(N(CCN4C(=O)c6ccccc6C4=O)S(=O)(=O)c4ccc(C)cc4)cc2O5)O3)cc1 in this test? inactive

Which outcome was entered for the compound Cc1ccc(S(=O)(=O)NC(=O)OC23COCN2COC3)cc1 in this test? inactive

Which outcome was entered for the compound CC(=O)Oc1cccc2c1C(=O)C(Br)(Br)CCC2 in this test? inactive

###

Tested on: PC-3
Test: NCI tumour cell line growth inhibition, 48 h
The source made the active and inactive calls. No stated cut-off is given here; in the data, active = GI50 up to about 1.1 µM and inactive = higher.
EXPERIMENTAL ENDPOINT: GI50

- MOLECULE: "Cc1cccc(C)c1NC(=O)Nc1ccc(S(N)(=O)=O)cc1"
  GI50: "> 100 µM (inactive)"
- MOLECULE: "COc1ccc2c(c1)c1c(n2CCN(C)C)-c2ccccc2CC1"
  GI50: "12.6 µM (inactive)"
- MOLECULE: "CCCCCCCCCCCCCCCCOCC(CC(F)(F)P(=O)(O)O)OC(C)=O (stereo not given)"
  GI50: "> 50 µM (inactive)"
- MOLECULE: "CCCCCCCCCCCCCC(=O)OCC(CCS(=O)(=O)O[C@H]1CC[C@@]2(C)C(=CC[C@@H]3C2CC[C@]2(C)C(=O)CCC32)C1)OC(=O)CCCCCCCCCCCCC (stereo not given in full)"
  GI50: "> 100 µM (inactive)"

Pending molecule:
Look at this molecule and give its reported GI50. CN1C(=O)CC(=O)N1/C(=C/c1ccccc1)c1ccccc1 32 µM (inactive)

Data credit: ChEMBL document CHEMBL1201862
